FYI, the data here is from PubChem BioAssay (Tox21).

# assay: qHTS assay to identify small molecule antagonists of the estrogen related receptor signaling pathway with the pleiotropic PPARgamma coactivator (PGC) from Tox21 10K library - cell viability counter screen (AID 1224840); note: % is set by controls: 0 for no effect and ±100 for the full control effect; nearly all actives have a fitted effect of over 40% in size
# applied-conditions: PGC/ERR reporter cells viability, CellTiter-Fluor, 17.5 h; series mostly up to 92.4 µM
# Description: National Center for Advancing Translational Sciences [NCATS] NIH Chemical Genomics Center [NCGC] U.S. Environmental Protection Agency [EPA] National Institutes of Environmental Health Sciences [NIEHS] National Toxicology Program [NTP] […] The PGC/ERR cells were dispensed at 2,000 cells/5 ul/well in 1536-well white plates using a Multidrop dispenser. […] After 30-minute incubation at 37 C/5% CO2, the fluorescence intensity in the plates was measured using a ViewLux plate reader.
Results filed as inconclusive are left out. The source made the active and inactive calls. Calls come from the whole dose curve; as a rule, active = well fitted cell-killing curve with a large enough effect in the repeat runs (not every such curve was filed as active); inconclusive = weak or mixed curves, or effect the other way; inactive = no such curve, though single readings can be large or run the other way.
observed-property: outcome

- molecule: "Clc1ccc(C(c2ccccc2Cl)C(Cl)Cl)cc1 (configuration not stated)"
  experimental-result: "inactive"
- molecule: "COc1cc(C(=O)NS(=O)(=O)c2ccccc2C)ccc1Cc1cn(C)c2ccc(NC(=O)OC3CCCC3)cc12"
  experimental-result: "inactive"
- molecule: "CCOCN(C(=O)CS(=O)(=O)O)c1c(C)cccc1CC"
  experimental-result: "inactive"
- molecule: "CCCSS/C(CCO)=C(\\C)N(C=O)Cc1cnc(C)nc1N"
  experimental-result: "inactive"
- molecule: "CCNc1nc(NC(C)CC)nc(OC)n1 (configuration not stated)"
  experimental-result: "inactive"
- molecule: "CC(C)CCOCCC(C)C"
  experimental-result: "inactive"
- molecule: "C=CC(C)C#N (configuration not stated)"
  experimental-result: "inactive"

* * *

# measurement-target: Aromatase (Homo sapiens) (UniProt P11511)
# Sequence (P11511 whole entry, looked up): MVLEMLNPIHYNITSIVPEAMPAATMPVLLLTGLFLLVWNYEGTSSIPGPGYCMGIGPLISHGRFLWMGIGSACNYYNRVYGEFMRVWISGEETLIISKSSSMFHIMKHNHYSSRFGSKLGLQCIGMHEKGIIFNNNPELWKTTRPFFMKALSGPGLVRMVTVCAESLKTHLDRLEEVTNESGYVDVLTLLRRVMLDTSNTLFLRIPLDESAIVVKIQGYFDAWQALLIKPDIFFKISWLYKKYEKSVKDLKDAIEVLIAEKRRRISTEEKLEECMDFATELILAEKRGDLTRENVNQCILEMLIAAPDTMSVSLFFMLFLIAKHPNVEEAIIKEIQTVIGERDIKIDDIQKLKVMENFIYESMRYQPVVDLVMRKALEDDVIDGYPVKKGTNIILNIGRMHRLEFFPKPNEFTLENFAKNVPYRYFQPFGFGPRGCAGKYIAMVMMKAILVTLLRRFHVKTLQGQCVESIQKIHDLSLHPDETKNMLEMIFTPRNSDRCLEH
# assay: qHTS assay to identify aromatase inhibitors (AID 743083); note: potency is the fitted concentration of half-maximal effect; nearly all actives have a fitted effect of over 55% in size
# applied-conditions: MCF-7 aro ERE, testosterone-driven ERE luciferase, 24 h; series mostly up to 70.3 µM
Inconclusive results are not listed. Activity calls are given as the source filed them. The call rests on the fitted dose curve; in most records, active means well fitted inhibition curve with a large enough effect in the repeat runs; inconclusive means weak or mixed curves; inactive means no such curve, though single readings can be large or run the other way.
Measured Potency, listed per entry for reference.
observed-property: Potency

- molecule: "CC(NCCC(c1ccccc1)c1ccccc1)c1ccccc1 (stereo not given)"
  observed-property: "Potency"
  experimental-result: "29.8 µM (active)"
- molecule: "CCN(CC)CCOc1ccc(C(O)(Cc2ccc(Cl)cc2)c2ccc(C)cc2)cc1 (stereo not given)"
  observed-property: "Potency"
  experimental-result: "29.8 µM (active)"
- molecule: "C=C1C(C)(C)[C@@]2(Cl)C(Cl)[C@]1(Cl)C(Cl)(Cl)C2(Cl)Cl (stereo not given in full)"
  observed-property: "Potency"
  experimental-result: "60 µM (active)"
- molecule: "CCCOc1sc(C(=O)N2CCC(c3cc(CN)ccc3F)CC2)c(C)c1Br"
  observed-property: "Potency"
  experimental-result: "25 µM (active)"

* * *

# assay: qHTS assay to identify small molecule antagonists of the estrogen related receptor (ERR) signaling pathway from Tox21 library (AID 1224848); note: nearly all actives have a fitted effect of over 50% in size
# applied-conditions: ERR reporter cell line, luciferase antagonist mode, 18 h; series mostly up to 92.4 µM
Records with an inconclusive call do not appear. The source made the active and inactive calls. Calls follow the shape of the dose curve; as a rule, active = well fitted inhibition curve with a large enough effect in the repeat runs; inconclusive = weak or mixed curves; inactive = no such curve, though single readings can be large or run the other way.
Classes used: T (active), F (inactive)

- compound: "COC(=O)C1=C(C)NC(C)=C(C(=O)OCCCN2CCC(c3ccccc3)(c3ccccc3)CC2)C1c1cccc([N+](=O)[O-])c1 (stereo unspecified)"
  group-label: "T"
- compound: "CC(C)(C)c1n[nH]c(=O)n(N)c1=O"
  group-label: "F"
- compound: "CCc1cccc(CC)c1NC(=O)C(=O)O"
  group-label: "F"
- compound: "COc1cccc(CCc2ccccc2OCC(CN(C)C)OC(=O)CCC(=O)O)c1 (stereo unspecified)"
  group-label: "F"
- compound: "CC(C)c1ccccc1N"
  group-label: "F"
- compound: "Nc1cc(Cl)c([N+](=O)[O-])cc1O"
  group-label: "F"

* * *

# assay: qHTS assay to test for compound auto fluorescence at 460 nm (blue) in HEK293 cell free culture (AID 720681); note: % is set by controls: 0 for no effect and ±100 for the full control effect
# applied-conditions: cell-free medium, autofluorescence 405/460 nm (blue); series mostly up to 91.3 µM
Calls of active or inactive are those of the source. Calls follow the shape of the dose curve; as a rule, active = well fitted curve in the direction sought with a large enough effect in the repeat runs; inconclusive = weak or mixed curves; inactive = flat fitted curve, though single readings scatter.

- compound: "O=C1c2c(O)ccc(O)c2C(=O)c2c(NCCNCCO)ccc(NCCNCCO)c21"
  fluorescence, % of fluorescent control: "-0.133% [at 18.6 µM] (inactive)"
- compound: "CC(CN(C)C)CN1c2ccccc2CCc2ccccc21 (stereo unspecified)"
  fluorescence, % of fluorescent control: "0.133% [at 18.6 µM] (inactive)"
- compound: "CCOC(=O)N1CCC(=C2c3ccc(Cl)cc3CCc3cccnc32)CC1"
  fluorescence, % of fluorescent control: "inactive"
- compound: "Oc1c(Br)cc(Br)c2cccnc12"
  fluorescence, % of fluorescent control: "inactive"
- compound: "CC(C)(c1cc(Br)c(OCCO)c(Br)c1)c1cc(Br)c(OCCO)c(Br)c1"
  fluorescence, % of fluorescent control: "inactive"
- compound: "Cc1cn[nH]c1"
  fluorescence, % of fluorescent control: "inactive"

* * *

# assay: qHTS assay to identify small molecule agonists of the estrogen receptor beta (ER-beta) signaling pathway - cell viability counter screen (AID 1259380); note: nearly all actives have a fitted effect of over 30% in size
# applied-conditions: ER-beta-bla HEK293T viability, CellTiter-Glo luminescence, 16 h; series mostly up to 92.4 µM
Records with an inconclusive call do not appear. The source made the active and inactive calls. Calls follow the shape of the dose curve; as a rule, active = well fitted cell-killing curve with a large enough effect in the repeat runs; inconclusive = weak or mixed curves, or effect the other way; inactive = flat fitted curve, though single readings scatter.
Classes used: Y (active), N (inactive)

- molecule: "CC(=O)Oc1ccc(C2(c3ccc(OC(C)=O)cc3)C(=O)Nc3ccccc32)cc1"
  group-label: "N"
- molecule: "CCc1ccc(C)nc1"
  group-label: "N"
- molecule: "CCCSS/C(CCO)=C(\\C)N(C=O)Cc1cnc(C)nc1N"
  group-label: "Y"
- molecule: "C#CC(O)CCC (centres undefined)"
  group-label: "N"
- molecule: "ClC/C=C\\CCl"
  group-label: "N"
- molecule: "O=C(O)CCCCCCC(=O)O"
  group-label: "N"
- molecule: "Cc1cc(C)c(C=O)c(C)c1"
  group-label: "N"
- molecule: "NC(=O)c1ccccc1N"
  group-label: "N"
- molecule: "O=C(O)CCn1c2c(c3ccccc31)C[C@H](NS(=O)(=O)c1ccc(F)cc1)CC2"
  group-label: "N"
- molecule: "COc1ccc2sc(C(=O)Nc3nnn[nH]3)c(OC(C)C)c2c1"
  group-label: "Y"
- molecule: "Clc1ccc(C(c2ccccc2Cl)C(Cl)Cl)cc1 (centres undefined)"
  group-label: "Y"
- molecule: "Cc1cc(=O)[nH]c(=O)[nH]1"
  group-label: "N"
- molecule: "CCOC(=O)CN"
  group-label: "N"
- molecule: "Cc1cccc(C)n1"
  group-label: "N"
- molecule: "C=C(C)C(=O)OCCC[Si](Cl)(Cl)Cl"
  group-label: "N"
- molecule: "O=C1OC(=O)c2ccc3c4c(ccc1c24)C(=O)OC3=O"
  group-label: "N"
- molecule: "NC(=O)C(=O)N/N=C/c1ccc([N+](=O)[O-])o1"
  group-label: "N"
- molecule: "CCN(CC)CCNc1ccc(CO)c2sc3ccccc3c(=O)c12"
  group-label: "Y"
- molecule: "CNC(=O)c1cc(Oc2ccc(NC(=O)Nc3ccc(Cl)c(C(F)(F)F)c3)cc2)ccn1"
  group-label: "Y"
- molecule: "CCc1c(Br)c(Br)c(Br)c(Br)c1Br"
  group-label: "N"
- molecule: "Nc1ncnc2c1ncn2[C@@H]1O[C@H](COP(=O)(O)O)[C@@H](O)[C@H]1O"
  group-label: "Y"
- molecule: "O=C[C@H](O)[C@H](O)[C@H](O)CO"
  group-label: "N"
- molecule: "CN(C)c1ccc(N=Nc2ccccc2C(=O)O)cc1"
  group-label: "N"
- molecule: "c1ccc(Nc2cccc3ccccc23)cc1"
  group-label: "Y"
- molecule: "OCCCc1cccnc1"
  group-label: "N"
- molecule: "Cn1cccc1"
  group-label: "N"
- molecule: "CNC(=S)NN"
  group-label: "Y"
- molecule: "CCN(CC)c1cccc(C)c1"
  group-label: "N"
- molecule: "COc1cc(C=C2CCC/C(=C\\c3ccc(O)c(OC)c3)C2=O)ccc1O"
  group-label: "Y"

* * *

# assay: A CellTox Green Cytotoxicity Assay to monitor cytotoxicity in HEK293 cells - 40 hour (AID 1224871); note: nearly all actives have a fitted effect of over 45% in size; note: potency is the fitted concentration of half-maximal effect
# applied-conditions: CellTox Green fluorescence; series mostly up to 76.8 µM
Records with an inconclusive call do not appear. Calls of active or inactive are those of the source. The call rests on the fitted dose curve; in most records, active means well fitted activation curve with a large enough effect in the repeat runs; inconclusive means weak or mixed curves; inactive means flat fitted curve, though single readings scatter.
observed-property: Potency

- compound: "CC(C)N=C(N)/N=C(\\N)Nc1ccc(Cl)cc1"
  experimental-result: "inactive"
- compound: "C1CC(COCC2CO2)CCC1COCC1CO1 (centres undefined)"
  experimental-result: "inactive"
- compound: "C[C@]12CC[C@H]3C(=CCc4cc(O)ccc43)[C@@H]1CCC2=O"
  experimental-result: "inactive"
- compound: "CCO[Si](C)(C)OCC"
  experimental-result: "inactive"
- compound: "Cc1ccc(N)cc1O"
  experimental-result: "inactive"
- compound: "CCOCN(C(=O)CS(=O)(=O)O)c1c(C)cccc1CC"
  experimental-result: "inactive"
- compound: "CCCCCCCC(OC)OC"
  experimental-result: "inactive"
- compound: "CCCCCCCC/C=C\\CCCCCCCC(=O)NCc1ccc(O)c(OC)c1"
  experimental-result: "inactive"
- compound: "O=S(=O)(O)CCCN1CCOCC1"
  experimental-result: "inactive"
- compound: "CCCC(C)CCC(C)=O (centres undefined)"
  experimental-result: "inactive"
- compound: "CC[N+](CC)(CC)Cc1ccccc1"
  experimental-result: "inactive"
- compound: "CCN=C1C=CC(=C(c2ccc(N(CC)CC)cc2)c2ccc(N(CC)CC)cc2)c2ccccc21"
  experimental-result: "12.2 µM (active)"
- compound: "O=CC1CC1"
  experimental-result: "inactive"
- compound: "CCC(C)C(=O)OC (centres undefined)"
  experimental-result: "inactive"
